# System: OVCAR-5
# TEST NAME: NCI tumour cell line growth inhibition, 48 h
Active and inactive are the calls of the source. Cut-off read from the data, not from the text of the source: active = GI50 up to about 1.1 µM and inactive = higher.
Reported values of GI50 for individual entries
REPORTED ENDPOINT: GI50

INSERT INTO results (molecule, result) VALUES
  ('C#CCNC(CSSCC(N)C(=O)O)C(=O)O (stereo unspecified)', '> 100 µM (inactive)'),
  ('CNC(=O)N(C)/N=N/CCCl', '> 100 µM (inactive)'),
  ('C(=C\c1ccccc1)/C=N/c1ccc2c(c1)Cc1ccccc1-2', '> 100 µM (inactive)'),
  ('COc1c(C(CC(C)C)OC(C)=O)ccc2c1C(=O)OCc1cc(C)cc(O)c1O2 (stereo unspecified)', '15.1 µM (inactive)'),
  ('COc1ccc(OC)c2c1CC(C(=O)O)(C(=O)O)CC2=O', '> 100 µM (inactive)'),
  ('NC1c2c(Cl)sc(Cl)c2C(=O)C1O (stereo unspecified)', '> 100 µM (inactive)'),
  ('CCOC(=O)NNC1(SC)NC(=O)c2c(cc(Cl)oc2=O)O1 (stereo unspecified)', '11.5 µM (inactive)'),
  ('CC(N1CCOCC1)C(O)(c1ccccc1)c1ccccn1 (stereo unspecified)', '> 100 µM (inactive)'),
  ('O=C(/C=C/C1C(=O)NC(=O)NC1=O)CC(=O)C(=O)Nc1cc(Cl)c(Cl)cc1Cl', '> 100 µM (inactive)'),
  ('O=C(Nc1ccccc1-c1nc2ccccc2[nH]c1=O)c1ccccc1', '63.4 µM (inactive)'),
  ('Cc1cc(C)nc(NS(=O)(=O)c2ccc(NC(=O)c3ccc4nc5ccccc5c(Nc5ccc(S(=O)(=O)N=C(N)N)cc5)c4c3)cc2)n1', '> 100 µM (inactive)');

---

# Tested on: CAKI-1
# TEST NAME: NCI tumour cell line growth inhibition, 48 h
Active and inactive are the calls of the source. Rule as the data show it: active = GI50 up to about 1.1 µM and inactive = higher.
Classes used: active, inactive

INSERT INTO results (molecule, assayed_system, label_value) VALUES
  ('Cc1ccc(-c2nc(C)c(C(=O)Nc3ccc(Cl)cc3)s2)cc1', 'CAKI-1', 'inactive'),
  ('COc1ccc(P2(=S)SP(=S)(c3ccc(Cl)cc3)S2)cc1 (configuration not stated)', 'CAKI-1', 'inactive'),
  ('O=C(Nc1ccccc1-c1nc2ccccc2[nH]c1=O)c1ccccc1', 'CAKI-1', 'inactive'),
  ('CN(C)c1cccc(-c2cc(O)c3cc4c(cc3n2)OCO4)c1', 'CAKI-1', 'inactive'),
  ('COC(=O)CCC(=O)CC(=O)C(=O)Nc1ccc(F)cc1', 'CAKI-1', 'inactive'),
  ('COc1ccc2c(c1)OCC1=C2Oc2ccccc2C1', 'CAKI-1', 'inactive'),
  ('CC(/C=C/c1ncccc1OCCCCCC(=O)O)=N\NC1=NCCN1', 'CAKI-1', 'inactive'),
  ('C[C@H](NC(=O)OC1C2C=CC(O)C1CC2)c1ccccc1 (some centres not stated)', 'CAKI-1', 'inactive'),
  ('CC1=C(C)CC(C#N)(C#N)C(C#N)(C#N)C1', 'CAKI-1', 'inactive'),
  ('CSc1ccc2c(cc1=O)[C@@H](NC(=O)c1ccc(Cl)cc1)CCc1cc(O)c(O)c(O)c1-2', 'CAKI-1', 'inactive'),
  ('O=[N+]([O-])c1cc2ccc(N(CCO)CCO)nc2nc1N(CCO)CCO', 'CAKI-1', 'inactive'),
  ('CC(=O)O[C@H]1CC[C@H]2[C@@H]3CCc4cc(O)c(I)cc4[C@H]3CC[C@]12C', 'CAKI-1', 'inactive'),
  ('CC(=O)OCC1OC(c2c(OC(C)=O)cc(C)c3c(=O)cc(/C(C(C)=O)=C(\C)O)oc23)C(OC(C)=O)C(OC(C)=O)C1OC(C)=O (configuration not stated)', 'CAKI-1', 'inactive'),
  ('COc1ccc(C(=O)O[C@H]2[C@@H]3C=CO[C@@H](OC4OC(CO)C(O)C(O)C4O)[C@@H]3[C@@]3(CO)O[C@@H]23)cc1O (some centres not stated)', 'CAKI-1', 'inactive'),
  ('CON(C)C(=O)CCCO', 'CAKI-1', 'inactive'),
  ('Fc1cccc(F)c1C(Nc1nncs1)Nc1nncs1', 'CAKI-1', 'inactive'),
  ('O=C(O)CNS(=O)(=O)c1ccc(NC(=O)c2ccc([N+](=O)[O-])cc2)cc1', 'CAKI-1', 'inactive'),
  ('Oc1nc2ccccc2c(O)c1Cc1ccccc1', 'CAKI-1', 'inactive'),
  ('COC(=O)C1(Cc2ccc3c(c2)CCC3)Cc2ccccc2C1O (configuration not stated)', 'CAKI-1', 'inactive'),
  ('O=C(N/C(=C/c1cccc([N+](=O)[O-])c1)c1nc2cc(Cl)ccc2[nH]1)c1ccccc1', 'CAKI-1', 'inactive'),
  ('COC(=O)C1=C(C(=O)OC)C2OC1c1cc3ccccc3cc12', 'CAKI-1', 'inactive'),
  ('c1ccc(N2N=C3N(c4ccccc4)C2N3c2ccccc2)cc1', 'CAKI-1', 'inactive'),
  ('CC[C@@]1(O)C(=O)OCc2c1cc1n(c2=O)Cc2c-1nc1ccccc1c2/C=N\NC(=O)C(N)CCSC (some centres not stated)', 'CAKI-1', 'active'),
  ('COC1=C(OC)C(=O)C(C/C=C/c2c(Cl)nc3sccn23)=C(C)C1=O', 'CAKI-1', 'inactive'),
  ('CC(N1CCOCC1)C(O)(c1ccccc1)c1ccccn1 (configuration not stated)', 'CAKI-1', 'inactive'),
  ('COC(=O)[C@H](Cc1ccccc1)NC(=O)N(CCC#N)CCN(C(=O)N[C@@H](Cc1ccccc1)C(=O)OC)c1ccccc1', 'CAKI-1', 'inactive'),
  ('C=C1C(=O)O[C@@H]2C[C@@]3(C)CCCC(=C)[C@@H]3C[C@H]12.C=C1C(=O)O[C@@H]2C[C@@]3(C)CCC[C@H](C)C3=C[C@H]12', 'CAKI-1', 'inactive'),
  ('NC1C/C(=N\O)c2c(I)sc(I)c21 (configuration not stated)', 'CAKI-1', 'inactive'),
  ('COC(OC)c1cccnc1C', 'CAKI-1', 'inactive'),
  ('COC1=C(OC)C(=O)c2cc(C)c(=O)c(C)cc2C1=O', 'CAKI-1', 'inactive'),
  ('C#CCNC(CSSCC(N)C(=O)O)C(=O)O (configuration not stated)', 'CAKI-1', 'inactive'),
  ('NC(=O)[N+](=CC(=S)Nc1ccccc1Cl)C(N)=O', 'CAKI-1', 'inactive'),
  ('Nc1nc(OCC2CCCCC2)c2nc[nH]c2n1', 'CAKI-1', 'inactive'),
  ('O=[N+]([O-])C(=C(N1CCCCC1)N1CCCCC1)/C(Cl)=C(\Cl)Br', 'CAKI-1', 'inactive'),
  ('CCc1ccccc1NNc1cc(=O)[nH]c(=O)[nH]1', 'CAKI-1', 'inactive'),
  ('C(=C\c1ccccc1)/C=N/c1ccc2c(c1)Cc1ccccc1-2', 'CAKI-1', 'inactive'),
  ('C/C1=C\[C@H](C)C[C@H](C)OC(=O)C[C@H](c2ccc(O)cc2)NC(=O)[C@@H](Cc2c(Br)[nH]c3ccccc23)N(C)C(=O)[C@H](C)NC(=O)[C@@H](C)C1 [JASPAMIDE]', 'CAKI-1', 'active'),
  ('Cc1cc(C)c2cc(N)c(Cl)nc2n1', 'CAKI-1', 'inactive'),
  ('O=C(C(=O)n1ccc2ccccc21)n1ccc2ccccc21', 'CAKI-1', 'inactive'),
  ('CC(C)(C)OC(=O)NCCc1cccc2c1oc1c(CCC(=O)O)cccc12', 'CAKI-1', 'inactive'),
  ('CCOC(=O)/C(C(=O)c1ccccc1)=C1/NCCN1C', 'CAKI-1', 'inactive'),
  ('C=C(C(=O)OC)N1C(=O)CC(C)C1=O (configuration not stated)', 'CAKI-1', 'inactive');

---

Reported values of GI50 for individual entries
# Tested on: COLO 205
# TEST NAME: NCI tumour cell line growth inhibition, 48 h
Active and inactive are the calls of the source. Rule as the data show it: active = GI50 up to about 1.1 µM and inactive = higher.
REPORTED ENDPOINT: GI50

INSERT INTO assay_data (compound, reported_endpoint, result) VALUES
  ('COc1cc(C2SCC(=O)N2c2ccc(NC(C)=O)cc2)cc(OC)c1OC (configuration not stated)', 'GI50', '> 100 µM (inactive)'),
  ('CCOC(=O)NNC1(SC)NC(=O)c2c(cc(Cl)oc2=O)O1 (configuration not stated)', 'GI50', '6.93 µM (inactive)'),
  ('O=NN(CCCl)C(=O)N[C@H]1CC[C@@H](CC(=O)O)CC1', 'GI50', '> 100 µM (inactive)'),
  ('Cc1c(C)n(COCCO)c2ncnc(N)c12', 'GI50', '> 100 µM (inactive)'),
  ('CC(C)N(C(=O)C12C3C4C1C1C4(C#N)C3C12C#N)C(C)C (configuration not stated)', 'GI50', '> 100 µM (inactive)'),
  ('COc1cc(C(CC(OC)OC)=C(C#N)C#N)cc(OC)c1OC', 'GI50', '9.35 µM (inactive)'),
  ('C/C(=N\N=C(/S)N1CC2CCC(CC2)C1)c1ccncn1', 'GI50', '< 0.01 µM (active)'),
  ('CN(C)c1cccc(-c2cc(O)c3cc4c(cc3n2)OCO4)c1', 'GI50', '0.2 µM (active)'),
  ('CCOC(=O)CC(C)C(C#N)(OP1(=O)OC(c2ccccc2)C(C)N1C)c1ccccc1 (configuration not stated)', 'GI50', '18.5 µM (inactive)'),
  ('CCCCCCCCCCCCCCCCCCNc1ccn(C2OC(COP(=O)(O)OCC3OC(n4ccc(NC(=O)CCCCCCCCCCCCCCCCC)nc4=O)C(OC(C)=O)C3OC(C)=O)C(OC(C)=O)C2OC(C)=O)c(=O)n1 (configuration not stated)', 'GI50', '> 100 µM (inactive)'),
  ('CCOP(=O)(C[S+](C)[O-])O[C@@H]1C[C@H](C)CC[C@H]1C(C)C (some centres not stated)', 'GI50', '6.19 µM (inactive)'),
  ('CC1(c2ccccc2)CC(c2cccc([N+](=O)[O-])c2)=NO1 (configuration not stated)', 'GI50', '> 100 µM (inactive)'),
  ('CC(C)(C)OC(=O)N(CCCN)CCCCN(CCCN)C(=O)OC(C)(C)C', 'GI50', '> 100 µM (inactive)'),
  ('NC(=O)c1cnc2sc3ccccc3n2c1=O', 'GI50', '> 100 µM (inactive)'),
  ('Cn1c(=S)[nH]c2sc3c(c2c1=O)CCSC3', 'GI50', '47.1 µM (inactive)'),
  ('CCOC(=O)C1(CC)CCCCC(=O)N1 (configuration not stated)', 'GI50', '> 100 µM (inactive)'),
  ('O=C1C=CC(=O)c2c1ccc1c3ccccc3n(-c3ccccn3)c21', 'GI50', '14.2 µM (inactive)'),
  ('Cc1cn([C@@H]2C[C@H]2CO)c(=O)[nH]c1=O', 'GI50', '> 100 µM (inactive)'),
  ('Fc1ccc2nc3n(c2c1)C(c1c(F)cccc1F)SC3 (configuration not stated)', 'GI50', '45.2 µM (inactive)'),
  ('Cc1cnc2c(c1)C(=O)N(c1ccc(Oc3ccccc3)cc1)S2(=O)=O', 'GI50', '> 100 µM (inactive)'),
  ('CC(=O)NCCc1c(-c2[nH]c3ccccc3c2CCNC(C)=O)[nH]c2ccccc12', 'GI50', '> 100 µM (inactive)'),
  ('CC(C)(C)OC(=O)NCCc1cccc2c1oc1c(CCC(=O)O)cccc12', 'GI50', '> 100 µM (inactive)');
